test system: HEK-293T; assay: Multiplex assay against HEK293T; assay type: toxicity, cell-based; conditions: human, 12 h, 10 µM, compound concentration 10 uM
Measure Name: Population Pyknosed Nuclei (%)

COCCCN1CCC(NC(=O)c2cc(Cl)c(N)c3c2OCC3)CC1 [PRUCALOPRIDE] | 17
C[C@@H]1C[C@H]2[C@@H]3CCC4=CC(=O)C=C[C@]4(C)[C@@]3(F)[C@@H](O)C[C@]2(C)[C@@]1(O)C(=O)CO | 13
CN1CCN2c3ncccc3Cc3ccccc3C2C1 (centres undefined) | 15

----------
tested on: HEK-293T; experiment: Multiplex assay against HEK293T; type: toxicity, cell-based; conditions: human, 24 h, 1 µM, compound concentration 1 uM
Below, each entry is listed with its recorded Population Hoechst High Intensity Objects (%).
Measure Name: Population Hoechst High Intensity Objects (%)

COc1c(C)cc(NC(=O)c2nn(Cc3ccc(F)cc3)c3c2CN(C(=O)c2ccc[nH]2)C[C@]3(C)C(N)=O)cc1C | 4
O=C1N=C(NCc2cccs2)S/C1=C\c1ccc2ncccc2c1 | 0
CC(C)Oc1ccc(F)c(-c2cnc(N)c(C(=O)Nc3cnccc3N3CCC[C@@H](C(=O)O)C3)n2)c1 | 0
Cc1ccc(C(C)(O)c2nc3ccccc3s2)c(C)c1 (centres undefined) | 3

----------
We begin with a simple list: items and their reported Population Hoechst High Intensity Objects (%).
tested on: U2OS; experiment: Multiplex assay against U2OS; assay type: toxicity, cell-based; conditions: human, 48 h, 10 µM, compound concentration 10 uM
Measure Name: Population Hoechst High Intensity Objects (%)

CC[C@H](Nc1ncnc2[nH]cnc12)c1nc2cccc(F)c2c(=O)n1-c1ccccc1 | 0
Cn1cnc(-c2cnc(O[C@H]3CCN(C(=O)Cc4ccc(OC(F)(F)F)cc4)C[C@H]3F)c(C(N)=O)c2)c1 | 0
CCc1nn2c(C)cc(C)nc2c1Cc1ccc(-c2nnc(C3CCNCC3)o2)cc1 | 2
S=c1[nH]nc(-c2cccs2)n1-c1ccccc1 | 0
O=C1NCc2ccc3c(-c4cccc(Cl)c4)c[nH]c3c21 | 0
CC/C(=C(\c1ccc(O)cc1)c1ccc(OCCN(C)C)cc1)c1ccccc1 | 0
N#Cc1cc(F)cc(-c2nc(-c3ccc(F)cn3)no2)c1 | 1
CN1CCN2c3ncccc3Cc3ccccc3C2C1 (stereo not given) | 2
CC(C)c1ccc(/C=N/NC(=O)c2ccc(O)cc2)cc1 | 0
O=c1cccc2n1C[C@@H]1CNC[C@H]2C1 | 0

----------
system: U2OS; test: Multiplex assay against U2OS; assay type: toxicity, cell-based; details: human, 48 h, 10 µM, compound concentration 10 uM
Measure Name: Population Mitotic Cells (%)

CN1CCC(C(=O)c2cccc(NC(=O)c3c(F)cc(F)cc3F)n2)CC1 | 14
C[C@@H]1CC(=O)Nc2cccc(-c3ccc4c(c3)c(-c3cnn(C)c3)nn4C)c2N1 | 0

----------
tested on: U2OS; assay: Multiplex assay against U2OS; format: toxicity, cell-based; details: human, 48 h, 10 µM, compound concentration 10 uM
Measure Name: Population Mitochondria Different-Phenotype (%)

Cc1ccc(C(C)(O)c2nc3ccccc3s2)c(C)c1 (centres undefined) | 1%
O=C(O)Cc1ccccc1Nc1c(Cl)cccc1Cl | 1%
COCCn1c(C)c(C)s/c1=N\C(=O)C1C(C)(C)C1(C)C | 4%
N#Cc1cc(F)cc(-c2nc(-c3ccc(F)cn3)no2)c1 | 2%

----------
tested on: HEK-293T; experiment: Multiplex assay against HEK293T; assay type: toxicity, cell-based; settings: human, 12 h, 1 µM, compound concentration 1 uM
Measure Name: Population Normal (%)

COc1cc2ncnc(Nc3ccc(Oc4ccccc4)cc3C)c2cc1OC.Cl | 100
C[C@@H]1CC(=O)Nc2cccc(-c3ccc4c(c3)c(-c3cnn(C)c3)nn4C)c2N1 | 92
Cl.Cl.N#Cc1ccc(O[C@@H]2c3ccccc3C[C@H]2N2CCC[C@@H](N)C2)c(Cl)c1 | 100
CCCCCCNC(=O)Nc1ccc(S(=O)(=O)Nc2ccc(CCNC[C@H](O)COc3ccc(O)cc3)cc2)cc1 | 92
O=C1N=C(NCc2cccs2)S/C1=C\c1ccc2ncccc2c1 | 100

----------
test system: Fibroblast; test: Multiplex assay against human fibroblast; type: toxicity, cell-based; settings: 48 h, 1 µM, compound concentration 1 uM
Measure Name: Population Apoptotic (%)

COCCCN1CCC(NC(=O)c2cc(Cl)c(N)c3c2OCC3)CC1 [PRUCALOPRIDE] | 50
COCCn1c(C)c(C)s/c1=N\C(=O)C1C(C)(C)C1(C)C | 60
Cn1cnc(-c2cnc(O[C@H]3CCN(C(=O)Cc4ccc(OC(F)(F)F)cc4)C[C@H]3F)c(C(N)=O)c2)c1 | 25

----------
system: HEK-293T; assay: Multiplex assay against HEK293T; format: toxicity, cell-based; settings: human, 24 h, 1 µM, compound concentration 1 uM
Measure Name: Population Tubulin-Different-Phenotype (%)

C[C@@H]1C[C@H]2[C@@H]3CCC4=CC(=O)C=C[C@]4(C)[C@@]3(F)[C@@H](O)C[C@]2(C)[C@@]1(O)C(=O)CO [DEXAMETHASONE] | 17
CSc1nc(NC2CCCC2)c([N+](=O)[O-])c(NC2CCCC2)n1 [GS-39783] | 19
S=C(NCCCc1c[nH]cn1)NCCCN(Cc1ccc(Cl)c(Cl)c1)c1ccc(Br)cn1 | 32
O=C(O)c1cc2ccccc2c(Cc2c(O)c(C(=O)O)cc3ccccc23)c1O [PAMOIC ACID] | 16
CCCCC(=O)N(Cc1ccc(-c2ccccc2-c2nnn[nH]2)cc1)[C@H](C(=O)O)C(C)C | 12

----------
system: HEK-293T; test: Multiplex assay against HEK293T; format: toxicity, cell-based; details: human, 48 h, 10 µM, compound concentration 10 uM
Measure Name: Population Membrane Permeable-Phenotype (%)

CCC(=O)N1CCN(c2ccc(-n3c(=O)ccc4cnc5ccc(-c6cnc7ccccc7c6)cc5c43)cc2C(F)(F)F)CC1 [TORIN1] | 0
CC(C)c1noc(N2CCC(COc3ccc(-c4ccc(S(C)(=O)=O)cc4)nc3)CC2)n1 [GSK-1292263] | 0
N#Cc1cc(F)cc(-c2nc(-c3ccc(F)cn3)no2)c1 | 1
CCc1nn2c(C)cc(C)nc2c1Cc1ccc(-c2nnc(C3CCNCC3)o2)cc1 | 0
N[C@](CC1c2ccccc2Oc2ccccc21)(C(=O)O)[C@H]1C[C@@H]1C(=O)O | 0

----------
Listing of recorded Population Hoechst High Intensity Objects (%) by entry.
tested on: Fibroblast; test: Multiplex assay against human fibroblast; assay type: toxicity, cell-based; settings: 24 h, 10 µM, compound concentration 10 uM
Measure Name: Population Hoechst High Intensity Objects (%)

CC(C)Oc1ccc(F)c(-c2cnc(N)c(C(=O)Nc3cnccc3N3CCC[C@@H](C(=O)O)C3)n2)c1 | 0
S=c1[nH]nc(-c2cccs2)n1-c1ccccc1 | 0
CC[C@H](Nc1ncnc2[nH]cnc12)c1nc2cccc(F)c2c(=O)n1-c1ccccc1 [IDELALISIB] | 0
c1ccc2nc(N3CCNCC3)ccc2c1 [QUIPAZINE] | 0
CSCC[C@H](NC=O)C(=O)N[C@@H](CC(C)C)C(=O)N[C@@H](Cc1ccccc1)C(=O)O | 32
COc1cc2ncnc(Nc3ccc(Oc4ccccc4)cc3C)c2cc1OC.Cl | 0

----------
Readings of Population Mitochondria Different-Phenotype (%) for the listed compounds
tested on: U2OS; assay: Multiplex assay against U2OS; type: toxicity, cell-based; details: human, 12 h, 10 µM, compound concentration 10 uM
Measure Name: Population Mitochondria Different-Phenotype (%)

Cl.NCCc1ccc(O)c(O)c1 [DOPAMINE HYDROCHLORIDE] | 1
CCCCC(=O)N(Cc1ccc(-c2ccccc2-c2nnn[nH]2)cc1)[C@H](C(=O)O)C(C)C | 2
CC(C)(C)c1ccc(S(=O)(=O)Nc2ccc(Cl)cc2C(=O)c2cc[n+]([O-])cc2)cc1 | 2
CCC(=O)N1CCN(c2ccc(-n3c(=O)ccc4cnc5ccc(-c6cnc7ccccc7c6)cc5c43)cc2C(F)(F)F)CC1 | 7

----------
test system: U2OS; test: Multiplex assay against U2OS; format: toxicity, cell-based; details: human, 48 h, 1 µM, compound concentration 1 uM
Catalogue of Population Mitochondria Different-Phenotype (%) values
Measure Name: Population Mitochondria Different-Phenotype (%)

S=C(NCCCc1c[nH]cn1)NCCCN(Cc1ccc(Cl)c(Cl)c1)c1ccc(Br)cn1 | 3%
C[C@@H]1CC(=O)Nc2cccc(-c3ccc4c(c3)c(-c3cnn(C)c3)nn4C)c2N1 | 2%
CSc1nc(NC2CCCC2)c([N+](=O)[O-])c(NC2CCCC2)n1 [GS-39783] | 1%
CN(C)CCCc1cc(C(=O)Nc2ccc(-c3ccncc3)cc2)ccc1O.Cl.Cl | 3%
CCCCC(=O)N(Cc1ccc(-c2ccccc2-c2nnn[nH]2)cc1)[C@H](C(=O)O)C(C)C | 3%

Measured values drawn from ChEMBL document CHEMBL5724801 for this set.
